Tested on: Bacillus cereus ATCC 11778
Type: cell-based
Method: The antimicrobial activity of the peptides was determined using a broth dilution assay essentially as descried in the guidelines of the National Committee for […] (NCCLS) [National Committee for Clinical Laboratory Standards. Methods for dilution antimicrobial susceptibility tests for bacteria that grow aerobically. Fourth edition. Approved Standard (1997). Document M7-A4. […]
Non-standard residues stand in square brackets, D forms with d. Residues, ends and D or L forms follow the SMILES beside them. NMeL = CN[C@@H](CC(C)C)C(=O)O
Readout name: log10 of B. cerius MIC (log10 of the value in mg/L)
Answers are given as log10 of B. cerius MIC in mg/L.

Worked cases, log10 of B. cerius MIC given:
Molecule	log10 of B. cerius MIC
CC(C)C[C@H]1C(=O)N[C@H](Cc2c[nH]c3ccccc23)C(=O)N(C)[C@@H](CC(C)C)C(=O)N[C@H](Cc2c[nH]c3ccccc23)C(=O)N[C@@H](CCCCN)C(=O)N[C@H](CCC(N)=O)C(=O)N[C@@H](CCCNC(=N)N)C(=O)N[C@H](Cc2c[nH]c3ccccc23)C(=O)N1C [SEQ ID NO:140, c[KQRW^MeLW^MeLW]] (cyclo(K[dQ]R[dW][NMeL][dW][NMeL][dW]))	0.90
CC(C)C[C@H]1NC(=O)[C@H](Cc2c[nH]c3ccccc23)NC(=O)[C@@H](Cc2c[nH]cn2)NC(=O)[C@H](CCCCN)NC(=O)[C@@H](Cc2c[nH]cn2)NC(=O)[C@H](Cc2c[nH]c3ccccc23)NC(=O)[C@@H](CC(C)C)NC(=O)[C@H](Cc2c[nH]c3ccccc23)NC1=O [SEQ ID NO:21] (cyclo(K[dH]W[dL]W[dL]W[dH]))	0.60
CC(=O)N[C@H](CCCNC(=N)N)C(=O)N[C@@H](CCCNC(=N)N)C(=O)N[C@H](CCCCN)C(=O)N[C@@H](Cc1c[nH]c2ccccc12)C(=O)N[C@H](CC(C)C)C(=O)N[C@@H](Cc1c[nH]c2ccccc12)C(=O)N[C@H](CC(C)C)C(=O)N[C@@H](Cc1c[nH]c2ccccc12)C(N)=O [SEQ ID NO:136, Ac-RRKWLWLW-NH2] (Ac-[dR]R[dK]W[dL]W[dL]W-NH2)	1.34
CC(C)C[C@H]1NC(=O)[C@H](Cc2c[nH]c3ccccc23)NC(=O)[C@@H](CCCCN)NC(=O)[C@H](CCCNC(=N)N)NC(=O)[C@@H](CCCNC(=N)N)NC(=O)[C@H](Cc2c[nH]c3ccccc23)NC(=O)[C@@H](CC(C)C)NC(=O)[C@H](Cc2c[nH]cn2)NC1=O [SEQ ID NO:110, [RRKWLHLW]] (cyclo([dR]R[dK]W[dL]H[dL]W))	1.30

Kindly note the recorded log10 of B. cerius MIC for CC(C)C[C@@H]1NC(=O)[C@@H](Cc2c[nH]c3ccccc23)NC(=O)[C@H](CCCCN)NC(=O)[C@@H](CCCNC(=N)N)NC(=O)[C@H](CCCCN)NC(=O)[C@@H](Cc2c[nH]c3ccccc23)NC(=O)[C@H](CC(C)C)NC(=O)[C@@H](Cc2c[nH]cn2)NC1=O [SEQ ID NO:101, [KRKWLHLW]] (cyclo(K[dR]K[dW]L[dH]L[dW])) , which is 1.90

GET /value?item= CC(C)C[C@@H]1NC(=O)[C@@H](Cc2c[nH]c3ccccc23)NC(=O)[C@H](CCCNC(=N)N)NC(=O)[C@@H](CCCNC(=N)N)NC(=O)[C@H](CCCNC(=N)N)NC(=O)[C@@H](Cc2c[nH]c3ccccc23)NC(=O)[C@H](CC(C)C)NC(=O)[C@@H](Cc2c[nH]c3ccccc23)NC1=O [SEQ ID NO:133, [RRRWLWLW]] (cyclo(R[dR]R[dW]L[dW]L[dW])) &field=log10 of B. cerius MIC returns 1.00

Just so you know, measured log10 of B. cerius MIC for CC(C)C[C@H]1NC(=O)[C@H](Cc2c[nH]c3ccccc23)NC(=O)[C@@H](Cc2c[nH]cn2)NC(=O)[C@H](CCCCN)NC(=O)[C@@H](CO)NC(=O)[C@H](Cc2c[nH]c3ccccc23)NC(=O)[C@@H](CC(C)C)NC(=O)[C@H](Cc2c[nH]c3ccccc23)NC1=O [SEQ ID NO:14] (cyclo(K[dH]W[dL]W[dL]W[dS])) came out at 0.78
